// provenance: ChEMBL document CHEMBL2380295

Test system: OVCAR-8
assay-notes: Growth inhibition of human OVCAR8 cells after 48 hrs by sulforhodamine B assay
Format: functional
particulars: OVCAR-8, 48 h
Labelling: GI50 reported below 20 µM becomes YES; at or above becomes NO.

smiles-data: CC1(C)CC[C@@H]2CC(=O)O[C@@H](CO)CC(=O)O[C@@H]3C[C@@H](CCCCc4cc(O)ccc4I)O[C@@]1(C3)O2
classification: YES
//
smiles-data: CC1(C)CC[C@@H]2CC(=O)O[C@@H](CO)CC(=O)O[C@@H]3C[C@@H](CCCCc4ccc(I)c(O)c4)O[C@@]1(C3)O2
classification: YES
//
smiles-data: CC1(C)CC[C@@H]2CC(=O)O[C@@H](CO)CC(=O)O[C@@H]3C[C@@H](CCCCc4cc(O)c(Br)cc4Br)O[C@@]1(C3)O2
classification: YES
//
smiles-data: CC1(C)CC[C@@H]2CC(=O)O[C@@H](CO)CC(=O)O[C@@H]3C[C@@H](CCCCc4cc(O)ccc4Br)O[C@@]1(C3)O2
classification: YES
//
smiles-data: CC(=O)Nc1ccc(O)cc1CCCC[C@@H]1C[C@@H]2C[C@@]3(O[C@H](CCC3(C)C)CC(=O)O[C@@H](CO)CC(=O)O2)O1
classification: NO

In: Would you kindly verify if GI50 of `CC(=O)Nc1ccc(CCCC[C@@H]2C[C@@H]3C[C@@]4(O[C@H](CCC4(C)C)CC(=O)O[C@@H](CO)CC(=O)O3)O2)cc1O` is strictly less than 20 µM?
Out: NO

In: Answer whether the molecule `CC1(C)CC[C@@H]2CC(=O)O[C@@H](CO)CC(=O)O[C@@H]3C[C@@H](CCCCc4c(Br)cc(Br)c(O)c4Br)O[C@@]1(C3)O2` has GI50 strictly less than 20 µM
Out: YES

In: Decide: GI50 of `COc1cccc(CCCC[C@@H]2C[C@@H]3C[C@@]4(O[C@H](CCC4(C)C)CC(=O)O[C@@H](CO)CC(=O)O3)O2)c1` strictly below 20 µM?
Out: YES

---

experimental-system: Protein kinase C delta type (Homo sapiens)
Sequence (Q05655 whole entry, the tested form may be a part): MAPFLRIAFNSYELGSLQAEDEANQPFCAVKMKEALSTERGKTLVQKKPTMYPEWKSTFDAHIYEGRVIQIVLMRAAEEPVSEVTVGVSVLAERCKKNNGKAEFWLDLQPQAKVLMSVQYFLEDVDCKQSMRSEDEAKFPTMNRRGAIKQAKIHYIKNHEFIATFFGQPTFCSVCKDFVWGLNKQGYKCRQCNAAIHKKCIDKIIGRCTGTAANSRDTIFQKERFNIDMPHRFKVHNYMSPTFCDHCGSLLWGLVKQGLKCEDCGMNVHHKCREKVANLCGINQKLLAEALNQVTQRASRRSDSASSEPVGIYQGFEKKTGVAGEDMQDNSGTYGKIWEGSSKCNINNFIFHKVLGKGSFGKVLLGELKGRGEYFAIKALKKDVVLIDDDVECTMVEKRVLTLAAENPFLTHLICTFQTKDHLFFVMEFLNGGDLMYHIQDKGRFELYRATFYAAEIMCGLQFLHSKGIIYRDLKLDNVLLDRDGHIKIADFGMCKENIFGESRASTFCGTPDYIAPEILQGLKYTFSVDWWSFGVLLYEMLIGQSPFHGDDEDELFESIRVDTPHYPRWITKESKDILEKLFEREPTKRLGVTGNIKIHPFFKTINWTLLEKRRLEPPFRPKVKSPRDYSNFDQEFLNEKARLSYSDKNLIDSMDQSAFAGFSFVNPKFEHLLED
assay-notes: Inhibition of [3H]PDBu binding to PKCdelta-C1B domain peptide (unknown origin)
quantity: Ki (nM)
Give bare numbers, in nM.

Previously resolved entries follow.
smiles-data: CC1(C)CC[C@@H]2CC(=O)O[C@@H](CO)CC(=O)O[C@@H]3C[C@@H](CCCCc4cc(O)ccc4I)O[C@@]1(C3)O2
experimental-system: Protein kinase C delta type (Homo sapiens)
Ki [nM]: 4.6
--
smiles-data: CC1(C)CC[C@@H]2CC(=O)O[C@@H](CO)CC(=O)O[C@@H]3C[C@@H](CCCCc4cc(O)ccc4Br)O[C@@]1(C3)O2
experimental-system: Protein kinase C delta type (Homo sapiens)
Ki [nM]: 3.5

Read the next record carefully.
In: Value lookup for Ki; key = `CC1(C)CC[C@@H]2CC(=O)O[C@@H](CO)CC(=O)O[C@@H]3C[C@@H](CCCCc4cc(O)c(Br)cc4Br)O[C@@]1(C3)O2`
Out: 4.1

---

Can you tell me GI50 for the items I'm about to list?
System: MKN-7
assay-notes: Growth inhibition of human MKN7 cells after 48 hrs by sulforhodamine B assay
Type: functional
particulars: MKN-7, 48 h
Numbers only, in µM.

Take a look at these entries with their results.
smiles-data: COc1cccc(CCCC[C@@H]2C[C@@H]3C[C@@]4(O[C@H](CCC4(C)C)CC(=O)O[C@@H](CO)CC(=O)O3)O2)c1
endpoint-unit: µM
GI50: 19.1
//
smiles-data: CC1(C)CC[C@@H]2CC(=O)O[C@@H](CO)CC(=O)O[C@@H]3C[C@@H](CCCCc4ccc(I)c(O)c4)O[C@@]1(C3)O2
endpoint-unit: µM
GI50: 13.5

In: // query GI50 value for entry `CC1(C)CC[C@@H]2CC(=O)O[C@@H](CO)CC(=O)O[C@@H]3C[C@@H](CCCCc4c(Br)cc(Br)c(O)c4Br)O[C@@]1(C3)O2`
Out: 20.9

---

Tested on: SK-OV-3
assay-notes: Growth inhibition of human SKOV3 cells after 48 hrs by sulforhodamine B assay
Assay type: functional
particulars: SK-OV-3, 48 h
quantity: GI50

Illustrative cases are given below, each with its answer.
smiles-data: CC1(C)CC[C@@H]2CC(=O)O[C@@H](CO)CC(=O)O[C@@H]3C[C@@H](CCCCc4cc(O)c(Br)cc4Br)O[C@@]1(C3)O2
experimental-system: SK-OV-3
GI50: 15.8 µM
//
smiles-data: CC1(C)CC[C@@H]2CC(=O)O[C@@H](CO)CC(=O)O[C@@H]3C[C@@H](CCCCc4cc(O)ccc4Br)O[C@@]1(C3)O2
experimental-system: SK-OV-3
GI50: 15.5 µM
//
smiles-data: CC(=O)Nc1ccc(CCCC[C@@H]2C[C@@H]3C[C@@]4(O[C@H](CCC4(C)C)CC(=O)O[C@@H](CO)CC(=O)O3)O2)cc1O
experimental-system: SK-OV-3
GI50: 34.7 µM
//
smiles-data: CC1(C)CC[C@@H]2CC(=O)O[C@@H](CO)CC(=O)O[C@@H]3C[C@@H](CCCCc4ccc(I)c(O)c4)O[C@@]1(C3)O2
experimental-system: SK-OV-3
GI50: 14.8 µM

# input for lookup
In: Param item = `CC(=O)Nc1ccc(O)cc1CCCC[C@@H]1C[C@@H]2C[C@@]3(O[C@H](CCC3(C)C)CC(=O)O[C@@H](CO)CC(=O)O2)O1` ; retrieve measured GI50.
Out: > 100 µM

---

Tested on: Human gammaherpesvirus 4
assay-notes: Induction of EBV-early antigen expressed in human Raji cells at 10^-6 M after 48 hrs by immunofluorescence assay relative to control
Type: organism-based
particulars: human gammaherpesvirus 4, raji, 1 µM
quantity: Activity (%)
Give bare numbers, in %.

Past entries and their recorded results:
compound: CC1(C)CC[C@@H]2CC(=O)O[C@@H](CO)CC(=O)O[C@@H]3C[C@@H](CCCCc4c(Br)cc(Br)c(O)c4Br)O[C@@]1(C3)O2
quantity: Activity
value-reported: 1.9
--
compound: CC(=O)Nc1ccc(CCCC[C@@H]2C[C@@H]3C[C@@]4(O[C@H](CCC4(C)C)CC(=O)O[C@@H](CO)CC(=O)O3)O2)cc1O
quantity: Activity
value-reported: 2.4
--
compound: CC(=O)Nc1ccc(O)cc1CCCC[C@@H]1C[C@@H]2C[C@@]3(O[C@H](CCC3(C)C)CC(=O)O[C@@H](CO)CC(=O)O2)O1
quantity: Activity
value-reported: 2.1
--
compound: CC1(C)CC[C@@H]2CC(=O)O[C@@H](CO)CC(=O)O[C@@H]3C[C@@H](CCCCc4ccc(I)c(O)c4)O[C@@]1(C3)O2
quantity: Activity
value-reported: 2.3
--
compound: CCCCCCCCCCCCCC(=O)O[C@@H]1[C@@H](C)[C@@]2(O)[C@@H](C=C(CO)C[C@]3(O)C(=O)C(C)=C[C@@H]23)[C@@H]2C(C)(C)[C@]12OC(C)=O [PHORBOL MYRISTATE ACETATE]
quantity: Activity
value-reported: 31.5

In: Item under review: `COc1cccc(CCCC[C@@H]2C[C@@H]3C[C@@]4(O[C@H](CCC4(C)C)CC(=O)O[C@@H](CO)CC(=O)O3)O2)c1` . Reported Activity?
Out: 5.2

---

assay-notes: Octanol-water partition coefficient, log P of the compound by HPLC analysis
Assay type: physicochemical
Record form. Attribute: logP. Fill in for each entry.
Numbers only.

# batch: return logP for each of the 3 compounds below
1. CC1(C)CC[C@@H]2CC(=O)O[C@@H](CO)CC(=O)O[C@@H]3C[C@@H](CCCCc4cc(O)ccc4I)O[C@@]1(C3)O2
2. CC(=O)Nc1ccc(O)cc1CCCC[C@@H]1C[C@@H]2C[C@@]3(O[C@H](CCC3(C)C)CC(=O)O[C@@H](CO)CC(=O)O2)O1
3. CC1(C)CC[C@@H]2CC(=O)O[C@@H](CO)CC(=O)O[C@@H]3C[C@@H](CCCCc4c(Br)cc(Br)c(O)c4Br)O[C@@]1(C3)O2

Out:
[4.2, 2.3, 5.5]

In: // returns reported logP for input `COc1cccc(CCCC[C@@H]2C[C@@H]3C[C@@]4(O[C@H](CCC4(C)C)CC(=O)O[C@@H](CO)CC(=O)O3)O2)c1`
Out: 4.4

---

Test system: MKN-7
assay-notes: Growth inhibition of human MKN7 cells after 48 hrs by sulforhodamine B assay
Format: functional
particulars: MKN-7, 48 h
quantity: GI50 (µM)
One number for each entry, in µM.

# example entries with known answers
smiles-data: CC1(C)CC[C@@H]2CC(=O)O[C@@H](CO)CC(=O)O[C@@H]3C[C@@H](CCCCc4cc(O)ccc4I)O[C@@]1(C3)O2
GI50 [µM]: 11.5

smiles-data: CC1(C)CC[C@@H]2CC(=O)O[C@@H](CO)CC(=O)O[C@@H]3C[C@@H](CCCCc4cc(O)ccc4Br)O[C@@]1(C3)O2
GI50 [µM]: 6.92

smiles-data: CC(=O)Nc1ccc(CCCC[C@@H]2C[C@@H]3C[C@@]4(O[C@H](CCC4(C)C)CC(=O)O[C@@H](CO)CC(=O)O3)O2)cc1O
GI50 [µM]: 30.2

In: State the recorded GI50 for this entry: `CC1(C)CC[C@@H]2CC(=O)O[C@@H](CO)CC(=O)O[C@@H]3C[C@@H](CCCCc4cc(O)c(Br)cc4Br)O[C@@]1(C3)O2`
Out: 6.46
